Attribution: ChEMBL document CHEMBL6120978

EXPERIMENTAL_PROTOCOL: Selectivity index, ratio of IC50 for cytotoxicity against chinese hamster V79 cells to IC50 for cytotoxicity against human A549 cells
Format: toxicity, cell-based
MEASUREMENT_PARAMETERS: V79 cells versus A549 cells, read-out: Ratio IC50
VALUE_KIND: selectivity ratio

INSERT INTO measurements (sample_smiles, value_kind, result) VALUES
  ('CC[C@@H](C(=O)[C@@H](C)[C@@H](O)[C@H](C)[C@@H]1O[C@@H]([C@@H](CC)C(=O)OCCCCCC[P+](c2ccccc2)(c2ccccc2)c2ccc(N(C)C)cc2)CC[C@@H]1C)[C@H]1O[C@]2(C=C[C@@H](O)[C@]3(CC[C@@](C)([C@H]4CC[C@](O)(CC)[C@H](C)O4)O3)O2)[C@H](C)C[C@@H]1C.[Br-]', 'selectivity ratio', 0.7),
  ('CC[C@@H](C(=O)[C@@H](C)[C@@H](O)[C@H](C)[C@@H]1O[C@@H]([C@@H](CC)C(=O)OCCCCCC[P+](c2ccccc2)(c2ccccc2)c2ccccc2)CC[C@@H]1C)[C@H]1O[C@]2(C=C[C@@H](O)[C@]3(CC[C@@](C)([C@H]4CC[C@](O)(CC)[C@H](C)O4)O3)O2)[C@H](C)C[C@@H]1C.[Br-]', 'selectivity ratio', 0.9),
  ('CCCC[P+](CCCC)(CCCC)CCCCOC(=O)[C@H](CC)[C@H]1CC[C@H](C)[C@H]([C@@H](C)[C@H](O)[C@H](C)C(=O)[C@H](CC)[C@H]2O[C@]3(C=C[C@@H](O)[C@]4(CC[C@@](C)([C@H]5CC[C@](O)(CC)[C@H](C)O5)O4)O3)[C@H](C)C[C@@H]2C)O1.[Br-]', 'selectivity ratio', 0.7);
